RECORDED METRIC: melting point

Here are 2 compounds together with their reported answers.
{"columns": ["COMPOUND", "melting point"],
 "data": [
  ["CN(CCO)Cc1ccc2cc(-c3cn4ccsc4n3)c(=O)oc2c1 [Compound 345]", "145 to 148 °C"],
  ["Cc1ccn2cc(-c3cc4ccc(N5CCCNCC5)cc4oc3=O)nc2n1 [Compound 230]", "286 to 288 °C"]
]}

Consider the record given below.
## Task Give the reported value of melting point for this record: Cc1nc(Cl)cn2cc(-c3cc4ccc(N5CCN(C)[C@@H](C)C5)cc4oc3=O)nc12 [Compound 727]
## Result 251 to 253 °C
